target: Cytochrome P450 1A2 (Homo sapiens) (UniProt P05177); assay: Cytochrome panel assay with activity outcomes; settings: recombinant CYP, pro-luciferin dealkylation, luminescence, p450-cyp1a2; series mostly up to 57.1 µM
Sequence (P05177 whole entry, looked up): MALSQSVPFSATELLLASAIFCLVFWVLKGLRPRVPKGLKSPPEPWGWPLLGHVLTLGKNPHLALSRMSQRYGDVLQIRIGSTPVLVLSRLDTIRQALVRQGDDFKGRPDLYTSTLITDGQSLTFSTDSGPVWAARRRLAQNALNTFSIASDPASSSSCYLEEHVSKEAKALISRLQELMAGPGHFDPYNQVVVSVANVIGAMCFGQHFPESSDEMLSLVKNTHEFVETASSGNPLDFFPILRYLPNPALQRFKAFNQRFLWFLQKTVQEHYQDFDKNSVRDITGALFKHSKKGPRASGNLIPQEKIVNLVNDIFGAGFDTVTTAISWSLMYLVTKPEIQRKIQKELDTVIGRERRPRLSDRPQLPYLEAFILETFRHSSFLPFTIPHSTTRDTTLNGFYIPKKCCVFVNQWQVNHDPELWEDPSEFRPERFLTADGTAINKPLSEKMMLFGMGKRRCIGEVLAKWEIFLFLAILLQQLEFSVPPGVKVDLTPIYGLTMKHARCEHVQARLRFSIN
About 5,700 (36%) of roughly 16,000 compounds were called active. Not shown: some 24% with an inconclusive outcome. Calls follow the shape of the dose curve; as a rule, active = well fitted curve in the direction sought with a large enough effect; inconclusive = small, poorly fitted or top-dose-only effect, or effect the other way; inactive = no such curve, though single readings can be large or run the other way. The list shows a part of the results.
Outcomes: active, inactive

[[record]]
compound = "Cc1cccc(NC(=O)Cn2c(=O)n3nc(CCn4nc(C)cc4C)nc3c3ccccc32)c1"
class_assignment = "inactive"

[[record]]
compound = "Sc1ccc2ccccc2c1CNCc1ccccc1"
class_assignment = "active"

[[record]]
compound = "Clc1cccc(Nc2nnc(-c3ccccc3)c3ccccc23)c1"
class_assignment = "active"

[[record]]
compound = "COc1ccc(Nc2nnc(-c3ccc(N4CCOCC4)c([N+](=O)[O-])c3)c3ccccc23)cc1"
class_assignment = "inactive"

[[record]]
compound = "Cc1c(Nc2cc(N3CCCC(C)C3)c3nonc3c2[N+](=O)[O-])c(=O)n(-c2ccccc2)n1C (stereo not given)"
class_assignment = "inactive"

[[record]]
compound = "CC1CCCC(NC(=O)CCn2c(=O)oc3ccccc32)C1C (stereo not given)"
class_assignment = "inactive"

[[record]]
compound = "COc1ncc2nc(C)c(=O)n(-c3ccccc3)c2n1"
class_assignment = "active"

[[record]]
compound = "COc1ccc(Oc2ncc3nc(C)c(=O)n(-c4ccc(OC)cc4)c3n2)cc1"
class_assignment = "active"

[[record]]
compound = "CCOC(=O)Cc1csc(NC(=O)c2ccc(S(=O)(=O)N3CCCCC3)cc2)n1"
class_assignment = "active"

[[record]]
compound = "COCc1nnc(NC(=O)c2ccc(S(=O)(=O)N3CCCCCC3)cc2)o1"
class_assignment = "inactive"

[[record]]
compound = "CCC(=O)[C@@]1(C)[C@H](C)C[C@@H]2[C@@H]3CCC4=CC(=O)C=C[C@@]4(C)[C@H]3[C@H](O)C[C@]21C"
class_assignment = "inactive"

[[record]]
compound = "CCOC(=O)C1CCCN(C(=O)CSCc2ccccc2)C1 (stereo not given)"
class_assignment = "inactive"

[[record]]
compound = "O=C(COc1ccc(Cl)cc1Cl)N/N=C/CCc1ccccc1"
class_assignment = "active"

[[record]]
compound = "COc1ccc(OC)c2[nH]c(=O)c(CCNC(=O)COc3ccccc3)cc12"
class_assignment = "active"

[[record]]
compound = "CCOC(=O)N1CCN(C(=O)CSCc2ccc(Cl)cc2)CC1"
class_assignment = "active"

[[record]]
compound = "O=C(NC1CCCC1)c1cccnc1N1CCCCCC1"
class_assignment = "active"

[[record]]
compound = "c1ccc2c(Nc3ccncc3)nc(-c3ccc4c(c3)OCO4)nc2c1"
class_assignment = "active"

[[record]]
compound = "CCOC(=O)Cc1csc(NC(=O)c2ccc(Cl)nc2)n1"
class_assignment = "active"

[[record]]
compound = "O=C(c1cccc(F)c1)N1CCC2(CCCN(Cc3cc(C(F)(F)F)cc(C(F)(F)F)c3)C2)CC1"
class_assignment = "inactive"

[[record]]
compound = "O=C(OCc1cccc(F)c1)c1ccc2c(c1)-c1ccccc1C2=O"
class_assignment = "active"

[[record]]
compound = "CCOC(=O)Cc1csc(NC(=O)c2sc3nc4ccc(CC)cc4cc3c2N)n1"
class_assignment = "inactive"

[[record]]
compound = "Nc1cccc2cnccc12"
class_assignment = "active"

[[record]]
compound = "N#CCCn1cc(/C=N/O)c(-c2ccc(Cl)cc2)n1"
class_assignment = "active"

[[record]]
compound = "CC(Oc1ccc(O)cc1)(P(=O)(O)O)P(=O)(O)O"
class_assignment = "inactive"

[[record]]
compound = "CN(C)c1ccc(-c2cncnc2NCc2cccs2)cc1"
class_assignment = "active"

[[record]]
compound = "N#CCCn1c(=O)c(-c2cc(F)cc(F)c2)nc2cnc(Oc3ccccc3)nc21"
class_assignment = "active"

[[record]]
compound = "Cc1cccc(NC(=O)Cn2c(=O)oc3ccccc32)c1"
class_assignment = "active"

[[record]]
compound = "CN(C)C(CNC(=O)NC1CCCCC1)c1cccnc1 (stereo not given)"
class_assignment = "inactive"

[[record]]
compound = "COc1ccc(OC)c2[nH]c(=O)c(CCNS(=O)(=O)c3ccccc3)cc12"
class_assignment = "active"

[[record]]
compound = "CCCCCSc1nncc(=O)[nH]1"
class_assignment = "inactive"

[[record]]
compound = "O=C1C(=O)N(c2cccc(Cl)c2)C(c2ccccc2[N+](=O)[O-])/C1=C(\\O)c1ccccc1 (stereo not given)"
class_assignment = "inactive"

[[record]]
compound = "CN(C)c1ccc(-c2ccc3ncnc(N(C)C)c3c2)cc1"
class_assignment = "active"

[[record]]
compound = "COc1ccc(S(=O)(=O)N2CCC[C@H]2C(=O)NC2=NCCS2)cc1"
class_assignment = "inactive"

[[record]]
compound = "Cn1c(=O)c2cc(S(=O)(=O)NCCC(=O)Nc3ccc(Cl)cc3)ccc2n(C)c1=O"
class_assignment = "inactive"

[[record]]
compound = "CC(C/C=N/NC(=O)COc1cc(Cl)ccc1Cl)c1ccccc1 (stereo not given)"
class_assignment = "active"


FYI, the data here is from PubChem BioAssay AID1851.
